Assignment: determine reported log10 of Kd for the given compounds.
Experiment: Binding affinity to Helicobacter pyroli flavodoxin expressed in Escherichia coli by isothermal titration calorimetry analysis
Set-up: species or system Helicobacter pylori
Log10 applied to Kd; unit prior to transform: µM.

Use the examples below as a reference point.
O=[N+]([O-])/C=C/c1cc(Cl)cc(Br)c1 ... 1.00
O=[N+]([O-])/C=C/c1ccc(F)cc1Br ... 1.28
O=[N+]([O-])/C=C/c1cccc(C(F)(F)F)c1 ... 0.90
O=[N+]([O-])/C=C/c1c(F)c(F)c(F)c(F)c1F ... 1.00
O=[N+]([O-])/C=C/c1cc(C(F)(F)F)cc(C(F)(F)F)c1 ... 0.54
O=[N+]([O-])/C=C/c1ccc(Br)cc1 ... 0.61
O=[N+]([O-])/C=C/c1cc(C(F)(F)F)ccc1F ... 0.64
O=[N+]([O-])C1=Cc2cc(Cl)cc(Cl)c2OC1c1ccc(Br)cc1 (configuration not stated) ... 1.40
O=[N+]([O-])/C=C/c1ccc(I)cc1 ... 0.82
O=[N+]([O-])/C=C/c1ccccc1C(F)(F)F ... 0.94

State recorded log10 of Kd for all listed compounds.
1. O=[N+]([O-])/C=C/c1ccc(F)cc1
2. O=[N+]([O-])/C=C/c1ccccc1I

1. 1.60
2. 1.20
